Target: T1, Recombinant extracellular domain of human FOLR1 (Novoprotein, Cat#: C784) (human, UniProt P15328 25-233, limits assumed)
T1 construct: Bought reagent; also called recombinant FOLR1; immobilized FOLR1 extracellular domain
T1 sequence (P15328 25-233 limits assumed): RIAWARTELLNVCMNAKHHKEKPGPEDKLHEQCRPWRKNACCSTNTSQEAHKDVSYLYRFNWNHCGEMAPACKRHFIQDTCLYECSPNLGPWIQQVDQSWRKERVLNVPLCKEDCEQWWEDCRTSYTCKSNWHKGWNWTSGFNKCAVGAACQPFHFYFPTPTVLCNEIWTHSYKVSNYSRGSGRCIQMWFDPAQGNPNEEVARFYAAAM
Experiment: SPR (Biacore 8k), mAb captured on protein A chip, recombinant FOLR1 as analyte, 1:1 model
REPORTED_PROPERTY: Kd (nM)
Entry rule: numbers only, all in nM.

I am curious: what Kd value has been reported for chimeric anti-FOLR1 mAb F10 (antibody, V domains shown, also called Chimeric mAb F10) VH: QVQLQQSGPELVKPGASVKISCKASGYAFSSSWMNWVRQRPGKGLEWIGRIYPGDGYTHYNGMFKGKATLTADKSSSTGYMQLSSLTSEDSAVYFCTRHGDFPYWYFDVWGTGTTVTVSS VL: DIQMTQSPASLSASVGESVTITCRASENIDSYLAWYQQKQGKSPQLLVYAATNLAVGVPSRFSGSGSGTQYTLKINSLQSEDVARYYCQHHYSTPPTFGGGTKLEIK ?
0.704

Report Kd for chimeric anti-FOLR1 mAb F7 (antibody, V domains shown, also called Chimeric mAb F7) VH: EFQLQQSGPELVKPGASVKISCKASGYSFTDYNMNWVKQSNGKSLEWIGVIDPNYGTTNYNQKFVGKATLTVDQSSITAYMQLNSLTAEDSAVYFCAIKGYGNPAAYWGQGTLVTVSA VL: DIQMTQSPSSLSASLGGKVTITCKASQDINKYLAWYQHEPGKGPRLLIRYTSILESGIPSRFSGSGSGRDYSFSISNLEPEDIATYYCLQYYNLWTFGGGTKLEIK please.
2.33

Which Kd reading was recorded for the binder chimeric anti-FOLR1 mAb F17 (antibody, V domains shown, also called Chimeric mAb F17) VH: DVQLVESGGGLVQPGGSRKLSCAASGFTFSDFGMHWIRQAPERGLEWVAYMSYTPGTFHYADTVKDRFFISRDNAKNTLFLQMTSLRSDDTAMYYCARVHVGTVDYWGQGTSVTVSS VL: DVVLTQSPATLSVTPGDSVSLSCRASQNINNNLHWFQQKSHESPRLLIKYASQSISGIPSRFSGSGSGTDFTLSINNVETEDFGIYFCQQSNSWPALTFGTGTKVELK ?
0.265
